Below are pIC50 values measured for E-selectin (Homo sapiens).
pIC50: −log10 of the molar value.
Quantity: pIC50

For the record "O=C(CCc1cc(O)c(O)c(O)c1)N[C@H]1CC[C@H](C(=O)O)CC1" , what value of pIC50 is listed for E-selectin (Homo sapiens)?
5.51

A. O=C(O)Cc1ccc(-c2ccc(NC(=O)c3cccc(-c4ccc(O)c(O)c4O)c3)cc2)s1
B. O=C(O)Cc1ccc(-c2ccccc2NC(=O)c2ccccc2-c2cc(O)c(O)c(O)c2)s1
Larger number for pIC50: A , or B ? State the label of the item chosen.
A

---

Target protein (sequence): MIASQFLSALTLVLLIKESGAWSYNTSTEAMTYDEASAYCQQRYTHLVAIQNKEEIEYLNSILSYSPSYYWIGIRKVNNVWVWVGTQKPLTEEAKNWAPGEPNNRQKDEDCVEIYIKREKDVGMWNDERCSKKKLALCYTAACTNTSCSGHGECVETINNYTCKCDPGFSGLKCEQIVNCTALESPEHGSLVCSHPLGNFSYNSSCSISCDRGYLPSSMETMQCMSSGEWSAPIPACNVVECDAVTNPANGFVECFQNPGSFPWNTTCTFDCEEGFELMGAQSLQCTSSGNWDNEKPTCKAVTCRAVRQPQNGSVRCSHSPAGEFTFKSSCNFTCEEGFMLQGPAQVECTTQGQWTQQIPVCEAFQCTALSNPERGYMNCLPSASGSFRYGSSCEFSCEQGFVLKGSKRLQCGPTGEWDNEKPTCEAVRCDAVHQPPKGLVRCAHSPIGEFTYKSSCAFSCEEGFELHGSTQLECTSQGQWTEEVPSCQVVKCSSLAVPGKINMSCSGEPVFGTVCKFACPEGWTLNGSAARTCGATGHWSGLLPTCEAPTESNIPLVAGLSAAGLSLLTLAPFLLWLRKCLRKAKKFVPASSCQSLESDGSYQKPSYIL
Quantity: IC50 (µM)

A. O=C(O)Cc1ccc(-c2ccccc2NC(=O)/C=C/c2ccc(O)c(O)c2O)s1
B. O=C(O)Cc1ccc(-c2ccccc2NC(=O)Cc2cc(O)c(O)c(O)c2)s1
Larger number for IC50: A , or B ? State the label of the item chosen.
A

---

# Test system: HL-60
# Assay notes: Inhibition of attachment of HL60 cells to E-selectin at 109 uM after 5 mins
# Type: functional
# Assay context: Homo sapiens, HL-60, 5 min
Quantity: inhibition at 109 µM (%)
The reply should contain only the number, in %.

Sample records with inhibition at 109 µM:
Sample "CC(=O)N[C@H]1[C@H]([C@H](O)[C@H](O)CO)O[C@@](O[C@H]2[C@@H](O)[C@@H](CO)O[C@@H](O[C@@H]([C@H](O[C@@H]3O[C@@H](C)[C@@H](O)[C@@H](O)[C@@H]3O)[C@H](C=O)NC(C)=O)[C@H](O)CO)[C@@H]2O)(C(=O)O)C[C@@H]1O" — what was its inhibition at 109 µM?
32

Sample "O=C(O)Cc1ccc(-c2ccccc2NC(=O)CCc2cc(O)c(O)c(O)c2)s1" — what was its inhibition at 109 µM?
35

Sample "O=C(O)Cc1ccc(-c2ccccc2NC(=O)Cc2cc(O)c(O)c(O)c2)s1" — what was its inhibition at 109 µM?
35

Sample "O=C(O)Cc1ccc(-c2ccccc2NC(=O)c2cccc(-c3ccc(O)c(O)c3O)c2)s1" — what was its inhibition at 109 µM?
61

Sample "O=C(O)Cc1cccc(-c2ccccc2NC(=O)CCc2cc(O)c(O)c(O)c2)c1" — what was its inhibition at 109 µM?
20

Note: attention shifts to another entry.
Sample "O=C(Cc1cc(O)c(O)c(O)c1)NCc1ccc(C(=O)O)cc1" — what was its inhibition at 109 µM?
16

Values were extracted from ChEMBL document CHEMBL1142933.
